Where do the numbers come from? From paper PMC7076525.

assayRemarks: Pharmacokinetic study after intravenous compound K (2 mg/kg) in ICR mice: plasma, feces, urine
appliedConditions: ICR, mouse, plasma, iv, 2 mg/kg
endpoint: Vd

* CC(C)=CCCC(C)(OC1OC(CO)C(O)C(O)C1O)C1CCC2(C)C1C(O)CC1C3(C)CCC(O)C(C)(C)C3CCC12C (stereo not shown) [compound K] | 7.08 L/kg

###

assayRemarks: Pharmacokinetic study after intravenous compound K (2 mg/kg) in ICR mice: plasma, feces, urine
appliedConditions: ICR, mouse, plasma, iv, 2 mg/kg
endpoint: clearance

• CC(C)=CCCC(C)(OC1OC(CO)C(O)C(O)C1O)C1CCC2(C)C1C(O)CC1C3(C)CCC(O)C(C)(C)C3CCC12C (stereo not shown) = 10.4 mL/min/kg
